Value source: patent US20150342942A1

Assay: Pharmacokinetics in rats, oral
Settings: rat, in vivo, oral 1 mg/kg
Readout Type: Cmax

compound "Cc1cc(C2CCCCC2)n(O)c(=O)c1" , Cmax observed: 83 to 170 ng/mL

* * *

Assay: Pharmacokinetics in rats, oral
Conditions: rat, in vivo, oral 1 mg/kg
Readout Type: half-life

compound "Cc1cc(C2CCCCC2)n(O)c(=O)c1" , half-life observed: 6.8 to 7.6 h
